system: LIMK2; conditions: concentration: 1 μM, replicates: in singlicate; n = 1;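 note: KINOMEscan kinase panel screen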

- Molecule: "COc1cc2ncnc(Nc3ccc4nc(-c5ccccc5)[nH]c4c3)c2cc1OC.Cl"
  %Inh / %: 0
- Molecule: "CS(=O)(=O)c1ccc(-c2c(-c3ncn[nH]3)sc(N3CCOCC3)c2C#N)cc1"
  %Inh / %: 3
- Molecule: "Cn1ccc2ncnc(Oc3ccc(NC(=O)Nc4ccccc4)cc3)c21"
  %Inh / %: 1
- Molecule: "Cc1cccc(-c2nc(-c3ccc(S(C)(=O)=O)cc3)sc2-c2ccnc(NCCc3ccccc3)c2)c1"
  %Inh / %: 4
- Molecule: "Cc1c(O)cccc1Nc1ccnc2ccc(C(F)(F)F)cc12.Cl"
  %Inh / %: 0
- Molecule: "COc1ccccc1CNC(=O)c1cc(C(=O)c2ccccc2C)c[nH]1"
  %Inh / %: 5
- Molecule: "COc1cc(Nc2nccc(N3CCC(NC(=O)Nc4cc(C)ccc4C)C3)n2)cc(OC)c1OC (stereo not drawn)"
  %Inh / %: 15
- Molecule: "COc1ccc(Nc2nccc(-c3cccc(NC(=O)c4cc5cc(F)ccc5[nH]4)c3)n2)cc1"
  %Inh / %: 12
- Molecule: "Cc1c(Cn2ccn3c(=O)cc(N4CCOCC4)nc23)cccc1C(F)(F)F"
  %Inh / %: 0
- Molecule: "C[C@@H]1CCCCN1c1cc(-c2ccc3c(N)n[nH]c3c2)nc(N)n1"
  %Inh / %: 19
- Molecule: "Cc1ccc(-c2cc(-c3c[nH]nc3-c3ccccn3)ccn2)cc1"
  %Inh / %: 17
- Molecule: "CN1C(=O)C(Nc2ccc(Cl)c(C(=O)O)c2)=C(c2ccc(Cl)cc2)C1=O"
  %Inh / %: 0
- Molecule: "CS(=O)(=O)c1ccc(-c2nc3n(c2-c2ccncc2)CCC3)cc1"
  %Inh / %: 0
- Molecule: "COc1ccc(Nc2nccc(NCCNC(=O)Nc3ccccc3F)n2)cc1"
  %Inh / %: 3
- Molecule: "CC(C)(C)c1ccc(C(=O)Nc2cn3cc(-c4cccnc4)ccc3n2)cc1"
  %Inh / %: 20
- Molecule: "Cn1ccc2ncnc(Oc3cccc(C(=O)Nc4ccccc4)c3)c21"
  %Inh / %: 0
- Molecule: "COc1ccc(CNC(=O)NC2CCN(c3ccnc(Nc4cc(OC)c(OC)c(OC)c4)n3)C2)cc1 (stereo not drawn)"
  %Inh / %: 0
- Molecule: "O=C(Nc1ccccc1)Nc1cccc(Oc2ccc3nccn3n2)c1"
  %Inh / %: 0

* * *

List of %Inh values.
system: DYRK2; conditions: concentration: 1 μM, replicates: in singlicate; n = 1

- Smiles Entry: "COC(=O)c1c(-c2ccccc2)c2cc(C(=O)O)ccc2c(=O)n1Cc1ccccc1"
  %Inh / %: 0
- Smiles Entry: "COC(=O)c1c(-c2ccccc2)c2cc(OC)ccc2c(=O)n1Cc1ccccc1"
  %Inh / %: 0
- Smiles Entry: "Cc1cccc(-c2nc(-c3ccc(S(C)(=O)=O)cc3)sc2-c2ccnc(NCCc3ccccc3)c2)c1"
  %Inh / %: 0
- Smiles Entry: "C[C@@H]1CCCCN1c1cc(-c2ccc3c(N)n[nH]c3c2)nc(N)n1"
  %Inh / %: 10

* * *

test system: TAK1; construct: gene MAP3K7; conditions: concentration: 1 μM, replicates: in singlicate; n = 1

- Smiles Entry: "Cc1ccc(NC(=O)Nc2cc(C(C)(C)C)nn2-c2ccccc2)cc1"
  %Inh, %: 0
- Smiles Entry: "O=C(O)COc1ncnc2cc(-c3ccc4[nH]ncc4c3)sc12"
  %Inh, %: 28
- Smiles Entry: "NC(=O)c1nnc2ccccc2c1N"
  %Inh, %: 19
- Smiles Entry: "Cn1cncc1-c1ccc2ncnc(Nc3ccc(OCc4ccccc4)cc3)c2c1"
  %Inh, %: 0
- Smiles Entry: "Cc1cc(-c2ccc3c(c2)CC[C@@H](N[C@@H](C)c2ccccc2)C3)cnc1N.Cl"
  %Inh, %: 42
- Smiles Entry: "COC(=O)c1c(-c2ccccc2)c2cc(C(=O)O)ccc2c(=O)n1Cc1ccccc1"
  %Inh, %: 0
- Smiles Entry: "O=C1NC(=O)C(N2CCc3ccccc32)=C1c1ccccc1Cl"
  %Inh, %: 7
- Smiles Entry: "CC(C)(C)c1ccc(C(=O)Nc2cn3cc(-c4cccnc4)ccc3n2)cc1"
  %Inh, %: 11
- Smiles Entry: "Cc1c(O)cccc1Nc1ccnc2ccc(C(F)(F)F)cc12.Cl"
  %Inh, %: 0
- Smiles Entry: "Clc1cc(Cl)cc(Nc2ccnc(Nc3cc(Cl)cc(Cl)c3)n2)c1"
  %Inh, %: 18
